Taken from a melting point compilation (Tetko et al.; mined from patent text by program, amines drawn as free bases though some values may be those of a salt).

measure: melting point

compound | measure | result
CC(=O)Oc1ccc(C=CC(=O)O)cc1Cl | melting point | 210 to 213 °C
CNC(=O)c1cccc(C=O)c1 | melting point | 101 to 102 °C
CCOC(=O)NS(=O)(=O)c1ccc2c(c1)CCO2 | melting point | 118 to 119 °C
COc1ccc(NC(=O)c2coc(-c3ccncc3)c2)cc1N1CCN(C)CC1 | melting point | 103 to 105 °C
CCOC(=O)CCCCc1ccc2c(c1)C[C@@H](NC(=O)OC(C)(C)C)CC2 | melting point | 65 to 67 °C

Give one value of melting point per listed compound.
1. O=c1c2ccc([N+](=O)[O-])cc2nc(C(S)c2ncnc3[nH]cnc23)n1-c1ccccc1Cl (stereo not given)
2. O=C([C@@H]1CCCN1S(=O)(=O)c1ccc2ccccc2c1)N1C[C@@H](c2ccc(Cl)cc2)Sc2ccccc21
3. CCC(=O)C(O)(Cc1ccc(Cl)cc1Cl)c1cccnc1 (stereo not given)
4. CC1(C)CN(c2ncc(C(=O)N(CC3CC3)c3cccc(C(F)(F)F)c3)c(N)n2)C(=O)N1
5. Cc1c(OC(=O)C(C)(C)C)c(=O)ccn1C

Given back:
["218 °C", "147 to 151 °C", "145 to 146 °C", "193 to 194 °C", "112 to 113 °C"]

Give one value of melting point per listed compound.
1. COc1ccc(CN2C(=O)[C@@H](NC(=O)Cc3ccccc3)[C@H]2CI)c(OC)c1 (relative stereo)
2. CC12C=CC(=O)C=C1CCC1C2C(=O)CC2(C)C(SCc3ccc(Cl)cc3)CCC12 (stereo not given)
3. CCOC1=NN(C)C(=O)C1
4. CCCOc1ccc(C(O)CN2CCOCC2)cc1-c1nc2c(CCC)nn(C)c2c(=O)[nH]1 (stereo not given)
5. CCCCC(=O)OCC(=O)C1(OC(C)=O)CCC2C3CC(C)C4=CC(=O)C=CC4(C)C3C(O)CC21C (stereo not given)
6. CC(C)n1nc(-c2c(F)nc(N)nc2-c2ccccc2)ccc1=O
7. CCOC(=O)c1c(O)nc(SC(C)C)n1C(C)C

Given back:
181 to 182 °C
176 to 180 °C
79 to 80 °C
104 to 105 °C
148 to 150 °C
231 to 232 °C
97 to 98 °C

Give one value of melting point per listed compound.
1. COc1cc(O)c([N+](=O)[O-])cc1C(F)(F)F
2. CC1C(Cl)(Cl)C1(C)c1ccc(O)cc1 (stereo not given)
3. O=C(Cc1ccc([N+](=O)[O-])cc1C(=O)O)Nc1cccc(/C=C/c2nc(C3CCC3)cs2)c1

Given back:
1. 77 to 78 °C
2. 79 to 82 °C
3. 233 to 235 °C

* * *

Please go through the items and note down their melting point.

Give one value of melting point per listed compound.
1. Cc1nc2ccc(F)cc2[nH]c1=O
2. N#CC(Cl)CC(Cl)(Cl)C=O (stereo not given)
3. CCn1c(C=O)cnc1[N+](=O)[O-]
4. O=C1Nc2cccnc2N(C(=O)NCCN2CCC(CCCN3CCCCC3)CC2)c2cc(Cl)ccc21
5. CCOC(=O)C(NC(=O)OC(C)(C)C)C(c1ccc(O)cc1)S(=O)(=O)C(F)(F)F (stereo not given)
6. O=C1C(=O)c2ccc(-c3ccccc3)cc2C2=C1SCC1(CCN(Cc3ccc(F)cc3)CC1)O2
7. Cc1ccc(S(=O)(=O)CCC2OCCO2)cc1
8. CCc1cc(CC)c2sc3ccccc3c(=O)c2c1

Given back:
1: 258 to 260 °C; 2: 49 to 50 °C; 3: 38 to 40 °C; 4: 176 to 177 °C; 5: 47 to 49 °C; 6: 197 to 198 °C; 7: 78 to 80 °C; 8: 60 °C

Give one value of melting point per listed compound.
1. CC(C)[C@H](C[C@@H]1OC(C)(C)N(C(=O)OC(C)(C)C)[C@H]1CC1CCCCC1)C(=O)NCCNc1nc(N)n[nH]1
2. CCN(CC)c1nc2ccccc2n2c(C(F)(F)F)nnc12
3. O=C(O)Cc1c(C(=O)c2cccnc2)[nH]c2cc(Cl)ccc12
4. C#CCNC(=O)N1c2ccccc2-c2noc3c2C1CCC3 (stereo not given)
5. Fc1ccc2c(NCc3ccccc3)nc(-c3cccnc3)nc2c1
6. Cc1nc2c(N)nc3c(c2n1CCCCS(=O)(=O)C(C)(C)C)CCCC3
7. CC(=O)Nc1cccc(CNc2nc(Nc3cccc(NS(C)(=O)=O)c3)nc3[nH]cnc23)c1

Given back:
["99 to 112 °C", "155 to 157 °C", "267 to 268 °C", "220 °C", "199 to 203 °C", "208 to 210 °C", "159 to 162 °C"]

Give one value of melting point per listed compound.
1. COc1cc([N+](=O)[O-])ccc1S(=O)(=O)Nc1ccccc1C
2. Fc1ccc(NC(=S)Nc2ncccc2OCc2c(F)cccc2Cl)cc1
3. CC#CCOc1ccc(S(=O)(=O)C(C(=O)NO)C2CCN(C(=O)c3ccccc3)CC2)cc1 (stereo not given)
4. CN1C(=O)C(NC(=O)Nc2ccc(F)cc2)N=C(c2ccccc2)c2ccccc21 (stereo not given)
5. CC(=O)SCC(C(=O)NC(C)C(=O)OCc1ccccc1)C1CCc2ccccc21 (stereo not given)

Given back:
1. 127 to 129 °C
2. 146 to 148 °C
3. 224 °C
4. 269 to 270 °C
5. 95 °C

* * *

Please go through the items and note down their melting point.

These solved cases illustrate the format of a correct answer.
molecule | melting point
Cc1ccc(S(=O)(=O)OCCN2CN(C)C(=S)N(c3ccc(C)cc3C)C2)cc1 | 82 to 85 °C
ON=Cc1ccc(N2CCC3(CC2)OCCO3)cc1 | 151 to 152 °C

Give one value of melting point per listed molecule.
1. COCCN1C(=O)C(C)(C)C(=O)N(C)c2cc(CN(CCn3cc(C)c4occc4c3=O)Cc3cccnc3C)ccc21
2. CC(=O)Nc1ccc(C2COc3cc(O)c(O)cc3C2)cc1 (stereo unspecified)
3. NC(=O)c1ccccc1OCC1CC1

Given back:
1: 127 to 130 °C; 2: 201 to 203 °C; 3: 102 to 105 °C

Give one value of melting point per listed molecule.
1. CNc1nnc(-c2ccc3occ(-c4ccccc4Cl)c3c2)o1
2. CC(=O)OC1CSC(Oc2ccc(S(C)(=O)=O)cc2)C(OC(C)=O)C1OC(C)=O (stereo unspecified)

Given back:
1. 205 to 206 °C
2. 168 °C

Give one value of melting point per listed molecule.
1. CCOC(=O)CCCCC(=O)c1[nH]c(=O)[nH]c1C
2. CC(=O)c1ccc(CCCOc2c(C)cc(N3CN=C(C(F)(F)F)O3)cc2C)nn1
3. Cc1c(CNCC(C)C)[nH]c2c(C)c(NC(=O)c3ccc(OC[C@@H]4CCCO4)cc3)ccc12
4. COc1cc(Nc2nccc(-c3ccc(N4CC(O)C4)nc3)n2)cc(OC)c1OC
5. Cc1cc([N+](=O)[O-])ccc1NCCNC(N)=O

Given back:
1. 170 to 172 °C
2. 86 to 87 °C
3. 118 to 119 °C
4. 186 to 187 °C
5. 186 °C

* * *

Please go through the items and note down their melting point.

These solved cases illustrate the format of a correct answer.
compound | result
CN(CCOc1cc(-c2ccc(O)cc2)nn1C)CCc1ccc(Cl)cc1 | 90 to 91 °C
Oc1cccc(C(O)CNCCCCn2cnc3ccccc32)c1 (centres undefined) | 58 to 62 °C
N=c1n(Cc2ccc(Cl)cc2)c2ccc(Cl)cc2n1Cc1ccc(Cl)cc1 | 175 to 177 °C
Nc1nc(-c2cc(Cl)ccc2Cl)nc(N2CCS(=O)CC2)n1 | 267 to 269 °C
CCCCCS(=O)(=O)NC(=O)CCc1cc(-c2ccccc2)nn1Cc1ccc(Cl)cc1Cl | 145 to 147 °C

Give one value of melting point per listed compound.
1. CCc1nc2c(C)c(S(=O)(=O)N(C)C)c(C)nc2n1Cc1ccc(-c2ccccc2-c2c(OC(C)C)c(=O)c2=O)cc1
2. CCCn1nc2c(N)nc3ccccc3c2c1CCNC(=O)c1cccnc1
3. CC(C)c1cc(C=Cc2ccccc2O)on1

Given back:
1: 80 °C; 2: 219 to 221 °C; 3: 129 to 133 °C

Give one value of melting point per listed compound.
1. O=C(O)c1ccc(-c2cnc3c(c2)N(Cc2c(Cl)cccc2Cl)C(=O)CN3)cc1
2. ClCCCON=C(Cl)c1c(Cl)cccc1Cl

Given back:
1: > 200 °C; 2: 69 to 71 °C

Give one value of melting point per listed compound.
1. Cc1cscc1NC(=S)Nc1c(N)c(F)c(F)c(F)c1F
2. CCCN(CCC)C(=O)CNc1nc(-c2ccccc2)nc(C(C)C)c1C
3. CCCCOC(=O)c1nc(Cl)c2cc(OC(C)C)ccc2c1O
4. CC(C=C(N)C(=O)OCc1ccc(Cl)cc1)CP(=O)(O)O (centres undefined)
5. O=c1[nH]c2cc(Cl)ccc2n1C1CCN(CCCNc2ccccc2[N+](=O)[O-])CC1
6. CC(C)(C)OC(=O)N[C@H]1CC[C@H](CCN2CCN(c3cccc4c3CCC4)CC2)CC1
7. CC(=O)c1c(-c2ccc(OCCBr)c3ccccc23)oc2ccccc12
8. Cc1cccc(-c2[nH]c(C(C)C)nc2-c2cccc(-c3ccccc3F)c2)n1

Given back:
1. 286 to 290 °C
2. 98 to 99 °C
3. 60 to 62 °C
4. 207 to 208 °C
5. 220 °C
6. 115 to 118 °C
7. 115 to 117 °C
8. 153 to 155 °C

Give one value of melting point per listed compound.
1. Cn1cccc1-c1cc2nccnc2[nH]1
2. CN(C)Cc1c[nH]c2ccc(Cl)cc12
3. Brc1nc(-c2ccccc2)nc2ccccc12
4. O=c1nc(-c2cccc(S(=O)(=O)Cc3ccccc3)n2)sc2ccccc12
5. COc1ccc(S(=O)(=O)C2(C(=O)O)CCN(Cc3ccc(-c4cccs4)cc3)CC2)cc1
6. CC(=O)c1cc(-c2c(C)c(NC(=O)CC(C)(C)C)c(C)c3c2OCC3c2ccc(C(C)C)cc2)cs1 (centres undefined)
7. CCCCCCCCCCCCCCCCCCOc1cc(OCCCOc2ccc(S(C)(=O)=O)cc2)cc(C(=O)OC)c1
8. O=C(O)CCCCc1ccccc1CNC(=O)C1Cc2ccccc2N1S(=O)(=O)c1ccc(-c2cccc(C(F)(F)F)c2)cc1 (centres undefined)

Given back:
["208 to 209 °C", "127 to 130 °C", "132 °C", "217 to 218 °C", "235 °C", "133 to 134 °C", "101 to 102 °C", "98 to 99 °C"]
